Ref: PubChem BioAssay (NCI)

- Test system: KM12 colon
- EXPERIMENT_DESCRIPTION: NCI-60 one-dose screen, 48 h
- PROTOCOL_CONDITIONS: 10 µM unless noted
Compounds without any hit were thinned out: in the full panel of roughly 83,000, 20% have a hit. Calls of active or inactive are those of the source. Rule for the calls: active = growth percent below 10; inactive = the rest.
Returns: one label drawn from Yes = active, No = inactive

A selection of reference data follows.
# COMPOUND, ANSWER_LABEL
measured = [
    ("O=C(CN1C(=O)S/C(=C\\c2ccccc2)C1=O)Nc1ncc(Cc2ccccc2Cl)s1", "No"),
    ("CCCCC1=C(P(=O)(O)O)N[C@H](C(=O)O)CS1", "No"),
    ("Nc1nc2ccccc2c2c(=O)c3cccc(Cl)c3sc12", "No"),
    ("CN(C)CCNC(=O)c1ccc(-c2nc3ccc4[nH]ncc4c3c3c2C2CCC3C2)cc1 (stereo not given)", "Yes"),
    ("Nc1cnc(C(=O)NNc2nc3cc(F)ccc3n3cccc23)cn1", "No"),
]

Assay result, entry N#Cc1ccc(O)c(C2=NCC(c3ccccc3)O2)c1 (stereo not given) — outcome?
No

Item: `O=C(/C=C/c1cccc(Cl)c1)c1ccc(Nc2nc(Nc3ccc(F)cc3)nc(Nc3ccc(Cl)cc3)n2)cc1`
No

Can you handle `Cc1cc(S(=O)(=O)/N=C(\N)n2nc(C)c(C)c2C)c(SCc2ccccc2)cc1Cl` next?
No

Cool, now `Cc1cc(C(=O)Nc2ncc(Cc3cccc(C(F)(F)F)c3)s2)c2ccccc2n1`
No

How about `C=C1C(=O)O[C@H]2[C@H]1CC/C(COC(=O)C(=O)c1cn(C)c3ccc(Cl)cc13)=C\CC[C@@]1(C)O[C@@H]21` ?
Yes

Consider next the compound `CN1CCN(C(=O)c2ccc(NC(=O)c3cc4c(nn3)NCCN4Cc3cc(Cl)ccc3Cl)cc2)CC1` in the same way.
No

Now the compound Cc1cc(C)c2c(c1)N(C)c1ncnc(-n3cnc4cc(C)ccc43)c1CC2C (stereo not given)
No

Follow-up entry: `CCCCn1c(=O)[nH]c(N)c([C@@H]2c3c([nH]c(=O)n(CCCC)c3=O)Oc3ccc4ccccc4c32)c1=O`
Yes

Same thing, different compound: `CCOc1ccc(NC(=O)CSc2oc(-c3ccccc3)nc2S(=O)(=O)c2ccc(C)cc2)cc1`
No
